I'd appreciate it if you could supply GI50 values for the items below.
# System: HOP-92 NSCLC
# protocol: NCI tumour cell line growth inhibition, 48 h

Lab note: each compound below needs its GI50 filled in.
1. COC(=O)C(C)N1C(=O)c2ccccc2I1OC(C)=O (stereo unspecified)
2. C/C(=C(/c1ccc(O)cc1)c1ccc(OCCN2CCCC2)cc1)c1ccccc1
3. C[C@@H](NC(=O)Cc1cc(F)cc(F)c1)C(=O)N[C@@]1(C)N=C(c2ccccc2)c2ccccc2N(C)C1=O
4. O=c1oc(-c2ccc(O)c(O)c2)cc2cc(O)cc(O)c12

### Response
> 100 µM
2.24 µM
19.8 µM
25.5 µM

Quick request: GI50 for each listed item, please.
1. O=C(N[C@@H]1CCCc2ccccc21)[C@H](CCC(=O)N1CCN(C2CCCCC2)CC1)N1C(=O)[C@@H](N2C(=O)OC[C@@H]2c2ccccc2)[C@H]1/C=C/c1ccccc1
2. c1ccc2c(c1)nc(NCCN1CCNCC1)c1c3ccccc3[nH]c21

### Response
["1.58 µM", "0.43 µM"]
